All figures here come from ChEMBL document CHEMBL1821562.

Catalogue of concentration at 1 h readings, one per entry.
- assay.comment: Drug uptake in rat brain at 10 mg/kg, ip after 1 hr
- Assay type: ADME, organism-based
- Design: dose 10 mg/kg, route intraperitoneal
- cond: read-out: Drug uptake
Note: unit ng/g is implicit; provide only the numeric part.

Reference set (2 entries):
> print(dat)
                           smiles.structure              property  numeric.readout
1  C[C@@H]1CCCN1CCCOc1ccc(-c2ccc(=O)n(C)n2)cc1  concentration at 1 h             3440
2  O=C(c1ccc(-c2ccc(=O)n(-c3ccc(F)cc3)n2)cc1)N1CCC[C@H]1CN1CCCC1  concentration at 1 h              529

Look up and report measured concentration at 1 h for this entry: Cn1nc(-c2ccc(C(=O)N3CCC[C@H]3CN3CCCC3)cc2)ccc1=O 454

* * *

- Test system: Rattus norvegicus
- assay.comment: AUC (0 to 6 hrs) in po dosed rat
- Format: ADME, organism-based, Plasma
- Set-up: time < 6 hr, route oral
- cond: in vivo
property: AUC (ng·h/mL)
The reply should contain only the number, in ng·h/mL.

Complete the entry with AUC for CNC(=O)c1ccc(Oc2ccc3c(c2)CCN(C2CCC2)CC3)nc1 2600

* * *

- target.system: Histamine H3 receptor (Homo sapiens)
- Sequence (Q9Y5N1 whole entry): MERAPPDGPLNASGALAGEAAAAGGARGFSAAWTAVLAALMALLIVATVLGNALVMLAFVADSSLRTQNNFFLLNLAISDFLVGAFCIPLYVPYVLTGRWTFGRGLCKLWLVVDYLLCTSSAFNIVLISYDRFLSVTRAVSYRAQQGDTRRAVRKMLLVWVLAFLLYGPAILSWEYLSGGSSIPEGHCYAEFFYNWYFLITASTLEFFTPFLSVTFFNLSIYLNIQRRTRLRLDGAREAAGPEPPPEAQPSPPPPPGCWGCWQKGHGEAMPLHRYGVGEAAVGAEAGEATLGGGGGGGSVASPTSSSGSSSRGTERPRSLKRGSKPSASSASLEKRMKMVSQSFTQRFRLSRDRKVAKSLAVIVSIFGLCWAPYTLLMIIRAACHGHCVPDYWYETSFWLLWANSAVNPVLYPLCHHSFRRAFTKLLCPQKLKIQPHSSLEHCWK
pKi: −log10 of the molar value.
pKi below 7 gives not fulfilled; pKi at or above it gives fulfilled.

# example entries with known answers
> print(dat)
                           smiles.structure  classification
1  CC(C)N1CCN(C(=O)c2ccc(-c3ccc(=O)n(C)n3)cc2)CC1   not fulfilled
2  Cn1nc(-c2ccc(N3CCN4CCC[C@H]4C3)cc2)ccc1=O   not fulfilled
3    CN1CCCN(c2ccc(-c3ccc(=O)n(C)n3)cc2)CC1   not fulfilled
4  Cn1nc(-c2ccc(OC3CCN(C4CCCC4)CC3)cc2)ccc1=O       fulfilled
5  Cn1nc(-c2ccc(C(=O)N3CCN4CCC[C@H]4C3)cc2)ccc1=O   not fulfilled

Continue with the next compound.
Exam item: decide whether the reported pKi for C[C@@H]1CCCN1CCCOc1ccc(-c2ccc(=O)n(C)n2)cc1 is at least 7. fulfilled

* * *

Here the recorded half-life is given for each entry.
- assay.comment: Half life in rat at 1 mg/kg, iv
- Type: ADME, organism-based
- Design: dose 1 mg/kg, route intravenous
- cond: in vivo
Report only the number, with the unit h understood.

Give recorded half-life. Cn1nc(-c2ccc(C(=O)N3CCC[C@H]3CN3CCCC3)cc2)ccc1=O 1.6

Output half-life of O=C(c1ccc(-c2ccc(=O)n(-c3ccc(F)cc3)n2)cc1)N1CCC[C@H]1CN1CCCC1 1

* * *

Each entry below carries its recorded Cmax.
- assay.comment: Cmax in rat at 5 mg/kg, po
- Format: ADME, organism-based
- Parameters: dose 5 mg/kg, route oral
- cond: in vivo
Quick note: give the figure in ng/mL, leave out the unit.

Indicate the recorded Cmax value for this molecule: Cn1nc(-c2ccc(C(=O)N3CCC[C@H]3CN3CCCC3)cc2)ccc1=O 412

Assign Cmax to the following record: C[C@@H]1CCCN1CCCOc1ccc(-c2ccc(=O)n(C)n2)cc1 123

Give recorded Cmax. O=C(c1ccc(-c2ccc(=O)n(-c3ccc(F)cc3)n2)cc1)N1CCC[C@H]1CN1CCCC1 180
